Biological target: CRBN/DDB1 (Homo sapiens (Human), UniProt Q96SW2)
Sequence (Q96SW2 whole entry): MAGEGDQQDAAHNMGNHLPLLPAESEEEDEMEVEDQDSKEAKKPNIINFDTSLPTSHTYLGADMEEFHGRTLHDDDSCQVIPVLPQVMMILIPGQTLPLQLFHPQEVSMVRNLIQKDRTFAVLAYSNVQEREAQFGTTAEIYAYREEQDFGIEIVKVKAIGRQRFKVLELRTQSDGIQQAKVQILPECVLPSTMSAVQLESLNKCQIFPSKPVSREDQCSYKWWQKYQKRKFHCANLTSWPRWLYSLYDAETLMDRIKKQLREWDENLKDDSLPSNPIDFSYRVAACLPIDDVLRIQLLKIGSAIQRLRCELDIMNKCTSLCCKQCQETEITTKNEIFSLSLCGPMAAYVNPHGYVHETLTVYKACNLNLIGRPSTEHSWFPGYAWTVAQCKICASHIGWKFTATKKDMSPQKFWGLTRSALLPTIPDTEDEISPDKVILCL
Sequence (Q16531 whole entry partner): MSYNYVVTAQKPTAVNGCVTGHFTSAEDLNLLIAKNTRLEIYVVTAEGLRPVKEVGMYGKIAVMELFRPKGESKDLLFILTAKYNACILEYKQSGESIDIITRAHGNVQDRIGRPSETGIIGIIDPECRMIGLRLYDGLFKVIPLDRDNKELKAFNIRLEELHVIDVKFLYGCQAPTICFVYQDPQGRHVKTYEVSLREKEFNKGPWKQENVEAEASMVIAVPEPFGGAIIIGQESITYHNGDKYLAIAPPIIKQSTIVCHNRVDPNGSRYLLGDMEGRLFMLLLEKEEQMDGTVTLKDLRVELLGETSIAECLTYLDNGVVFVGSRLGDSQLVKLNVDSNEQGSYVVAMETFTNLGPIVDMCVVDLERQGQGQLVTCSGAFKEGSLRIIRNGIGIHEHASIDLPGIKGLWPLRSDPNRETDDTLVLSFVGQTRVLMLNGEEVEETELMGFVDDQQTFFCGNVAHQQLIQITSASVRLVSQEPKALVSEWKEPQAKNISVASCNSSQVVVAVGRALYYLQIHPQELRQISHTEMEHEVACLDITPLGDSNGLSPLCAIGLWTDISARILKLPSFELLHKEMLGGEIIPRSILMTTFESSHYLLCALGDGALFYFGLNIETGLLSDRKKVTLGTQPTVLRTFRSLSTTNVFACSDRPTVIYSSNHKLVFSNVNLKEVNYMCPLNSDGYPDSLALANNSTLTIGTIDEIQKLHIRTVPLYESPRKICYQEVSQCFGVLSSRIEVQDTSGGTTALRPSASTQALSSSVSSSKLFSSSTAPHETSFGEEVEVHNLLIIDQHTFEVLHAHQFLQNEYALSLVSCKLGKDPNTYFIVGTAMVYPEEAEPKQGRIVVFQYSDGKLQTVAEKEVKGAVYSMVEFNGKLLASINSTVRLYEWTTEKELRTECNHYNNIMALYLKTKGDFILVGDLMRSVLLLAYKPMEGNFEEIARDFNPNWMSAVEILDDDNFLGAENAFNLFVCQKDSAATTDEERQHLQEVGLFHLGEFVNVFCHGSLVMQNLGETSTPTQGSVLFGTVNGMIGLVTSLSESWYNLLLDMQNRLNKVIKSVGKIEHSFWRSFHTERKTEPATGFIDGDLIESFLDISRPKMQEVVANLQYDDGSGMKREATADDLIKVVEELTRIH
Experiment: HTRF binding assay to CRBN/DDB1
Conditions: read-out: CRBN HTRF IC50
Description: The binding potency was determined using HTRF assay technology (Perkin Elmer). Compounds were serially diluted in DMSO and 0.2 μL volume was transferred to white 384-well plate.
pIC50: −log10 of the molar value.
value-kind: pIC50

Observe how each entry below is paired with its result.
compound="O=C1CCC(N2Cc3c(ccc4c3OC[C@H]3CN(CC5CCN(c6ccc([C@@H]7c8ccc(O)cc8OC[C@@H]7c7ccccc7)cn6)CC5)CCN43)C2=O)C(=O)N1 (single isomer, unassigned)" value_kind=pIC50 result="6.30 to 7.30"
compound="O=C1CCC(NC(=O)c2ccc3c(n2)OC[C@H]2CN(CC4CCN(c5ccc([C@H]6c7ccc(O)cc7OC[C@H]6c6ccccc6)cc5F)CC4)CCN32)C(=O)N1 (some centres unmarked)" value_kind=pIC50 result="5.30 to 6.30"
compound="O=C1CC[C@@H](Nc2ccc(C3CCN(C[C@H]4COC5(CCN(c6ccc([C@@H]7c8ccc(O)cc8OC[C@@H]7c7ccccc7)cc6)CC5)C4)CC3)c(F)c2)C(=O)N1 (single isomer, unassigned)" value_kind=pIC50 result="6.30 to 7.30"
compound="COc1cccc([C@H]2COc3cc(O)ccc3[C@H]2c2ccc(N3CCC(CN4CCN5c6ccc7c(c6OC[C@@H]5C4)CN(C4CCC(=O)NC4=O)C7=O)CC3)cc2)c1 (single isomer, unassigned)" value_kind=pIC50 result="> 7.30"

From here, focus on the item given below.
The compound COc1ccc([C@H]2COc3cc(O)ccc3[C@H]2c2ccc(N3CCC(CN4CCN5c6ccc7c(c6OC[C@@H]5C4)CN(C4CCC(=O)NC4=O)C7=O)CC3)cc2)cc1 (single isomer, unassigned) , tested on CRBN/DDB1 (Homo sapiens (Human), UniProt Q96SW2), showed pIC50 of 6.30 to 7.30

Numbers sourced from patent US20260000676A1.
